Data origin, for the record: PubChem BioAssay (NCI)

Test system: DU-145 prostate
test: NCI tumour cell line growth inhibition, 48 h; in the data active means GI50 below about 0.43 µM; inactive means the rest
Answer with one of the outcomes given here: true (1) for active, false (0) for inactive

# fetch the recorded call for C=C1CC[C@@H]2[C@](C)(COC(C)=O)[C@H](OC(C)=O)CC[C@@]2(C)[C@@H]1CC(Nc1ccc(S(=O)(=O)Nc2nccs2)cc1)C1=CCOC1=O (some centres undefined) here
false (0)

Which result was noted for this compound in the test: CCN(CC)CCCC(C)Nc1c(-c2ccccc2)cnc2cc(Cl)ccc12 (centres undefined)
false (0)

Which outcome was entered for the compound O=c1cccc(C#CC#CCCCO)o1 in this test?
false (0)

Test call, this compound: O=C(Nc1ccccc1Cl)c1cccc(NC2=C(Cl)C(=O)N(Cc3ccccc3)C2=O)c1
false (0)

# outcome recorded in this test, key = CCN(CC)CCC(CNc1c(C)cnc2cc(Cl)ccc12)c1ccc(Cl)cc1 (centres undefined)
false (0)

Which result was noted for this compound in the test: Cc1cc(NC(=O)c2cnc(N3CCN(CCOCCOCCOCCOCCC(=O)N[C@H](C(=O)N4C[C@H](O)C[C@H]4C(=O)N[C@@H](C)c4ccc(-c5scnc5C)cc4)C(C)(C)C)CC3)cn2)c2ncccc2c1
false (0)

Which outcome was entered for the compound O=C(Nc1cnc(C(F)(F)F)cn1)c1cc(Cl)ccc1O in this test?
true (1)

Entry NNc1c2ccccc2nc2ccccc12 : call = ?
false (0)

Name the outcome recorded for Nc1cc2cccc[n+]2c2cccc(Cl)c12 in the assay.
false (0)

---

System: MOLT-4 leukemia
test: NCI tumour cell line growth inhibition, 48 h; in the data active means GI50 below about 0.43 µM; inactive means the rest
Mark one answer only. Choices: Yes = active, No = inactive

State the result this test recorded for COc1ccc2c(c1)C(=O)c1c-2c(N2CCNCC2)nc2ccccc12 .
No

What outcome does the record of this test show for CCN(CC)CCC(CNc1c(C)cnc2cc(Cl)ccc12)c1ccc(Cl)cc1 (stereo not given) ?
No

Please let me know the test result on file for O=S(=O)(NC1=NCCN1C(=S)SN1CCn2c1nsc2=S)c1cccc(OC(F)(F)F)c1 .
No

# fetch the recorded call for O=c1c(-c2ccccc2)coc2cc(OC/C(=N/O)c3ccc(F)cc3)ccc12 here
No

Dear colleague, could you share the recorded outcome for Cc1ccc(Sc2oc(-c3ccc(C)cc3)nc2[P+](c2ccccc2)(c2ccccc2)c2ccccc2)cc1 when you have a moment?
Yes

Hey, what did the test say about COc1cc(C2CC(=O)Nc3c2cc(Br)c2ccccc32)cc(Br)c1OC (stereo not given) ?
No

// param item: CC(=O)OC(C)C(OC(C)=O)C(OC(C)=O)C(/C=C/C1CC=CC(=O)O1)OC(C)=O (stereo not given) ; yields the recorded call
No

Assay result, entry COc1cccc(C2C(C#N)=C(N)Oc3c2ccc2ccccc32)c1 (stereo not given) — outcome?
Yes

Per the records of this test, what outcome belongs to Nc1cc2cccc[n+]2c2cccc(Cl)c12 ?
No

Hi, sorry to bother you, what did the test record for Nc1ncccc1-c1nc2ccc(-c3ccccc3)nc2n1-c1ccc(C2(N)CCC2)cc1 ?
Yes

---

Hi there, I'd appreciate the recorded GI50 for every entry that follows.

Request: GI50, test system MDA-MB-435, entry CCSc1nc(N)c(C#N)c(-c2ccco2)c1C#N
25.2 µM

So what GI50 did COc1cc(OC)cc(-c2n/c(=C\c3c(O)[nH]c4ccc(Cl)cc34)cc3c2=Nc2ccccc2-3)c1 get with MDA-MB-435?
14 µM

Please provide the recorded GI50 for CN1CCN(c2cc3nc4ccccc4n(-c4ccc(Cl)cc4)c-3cc2=N)CC1 , tested on MDA-MB-435.
17.5 µM

Please provide the recorded GI50 for CC(=O)OC(C)C(OC(C)=O)C(OC(C)=O)C(/C=C/C1CC=CC(=O)O1)OC(C)=O (stereo not given) , tested on MDA-MB-435.
37.6 µM

API: value(readout=GI50, system=MDA-MB-435) for record COc1ccc(-c2ccc(/C=N/n3c(COc4ccccc4Cl)n[nH]c3=S)o2)c([N+](=O)[O-])c1
20 µM
